Entry source: patent US20260242735A1

Mean % WT Binding for assorted binders
molecular target: human CD33 P150A (human, UniProt P20138 18-364); assay: flow cytometry on HEK293-T, alanine scan
Sequence (P20138 18-364 P150A limits assumed): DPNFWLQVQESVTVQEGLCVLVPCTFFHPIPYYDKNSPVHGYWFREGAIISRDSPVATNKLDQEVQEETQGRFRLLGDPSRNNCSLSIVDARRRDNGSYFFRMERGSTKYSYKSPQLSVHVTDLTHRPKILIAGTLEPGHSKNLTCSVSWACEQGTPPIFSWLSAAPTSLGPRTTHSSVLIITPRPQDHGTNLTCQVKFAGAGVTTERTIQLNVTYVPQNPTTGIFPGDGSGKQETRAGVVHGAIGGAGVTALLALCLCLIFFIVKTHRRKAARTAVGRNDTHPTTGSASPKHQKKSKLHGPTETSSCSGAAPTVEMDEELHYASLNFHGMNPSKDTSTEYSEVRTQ
Field: numeric (% WT binding). Do not append units.

Here is how some binders turned out for Mean % WT Binding.
{"Binder": "Refmab #4 (antibody, V domains shown, The alanine scan used IgG or Fab) VH: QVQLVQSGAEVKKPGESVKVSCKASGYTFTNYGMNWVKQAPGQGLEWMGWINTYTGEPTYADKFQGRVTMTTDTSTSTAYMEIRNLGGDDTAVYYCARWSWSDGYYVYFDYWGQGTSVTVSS VL: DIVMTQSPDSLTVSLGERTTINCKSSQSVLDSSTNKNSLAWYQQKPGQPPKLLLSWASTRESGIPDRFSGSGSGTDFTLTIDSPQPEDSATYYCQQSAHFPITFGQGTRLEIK", "Mean % WT Binding, % WT binding": 103}
{"Binder": "Refmab #1 (antibody, V domains shown, The alanine scan used IgG or Fab; also called hP67.6) VH: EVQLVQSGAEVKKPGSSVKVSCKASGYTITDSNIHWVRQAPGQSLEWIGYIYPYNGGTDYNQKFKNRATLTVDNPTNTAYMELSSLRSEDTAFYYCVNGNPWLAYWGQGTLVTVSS VL: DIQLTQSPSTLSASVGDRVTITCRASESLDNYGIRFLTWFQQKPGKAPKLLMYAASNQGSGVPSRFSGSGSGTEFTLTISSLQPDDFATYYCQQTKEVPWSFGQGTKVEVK", "Mean % WT Binding, % WT binding": 78.4}
{"Binder": "Refmab #2 (antibody, V domains shown, The alanine scan used IgG or Fab) VH: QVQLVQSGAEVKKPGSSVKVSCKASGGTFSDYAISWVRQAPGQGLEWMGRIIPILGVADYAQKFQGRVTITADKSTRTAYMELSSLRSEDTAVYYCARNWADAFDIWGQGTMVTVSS VL: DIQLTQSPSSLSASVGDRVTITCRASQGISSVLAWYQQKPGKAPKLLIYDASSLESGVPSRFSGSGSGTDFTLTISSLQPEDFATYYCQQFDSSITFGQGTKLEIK", "Mean % WT Binding, % WT binding": 112}

API: the following record is the query input.
# lookup: Mean % WT Binding of Refmab #3 (antibody, V domains shown, The alanine scan used IgG or Fab) VH: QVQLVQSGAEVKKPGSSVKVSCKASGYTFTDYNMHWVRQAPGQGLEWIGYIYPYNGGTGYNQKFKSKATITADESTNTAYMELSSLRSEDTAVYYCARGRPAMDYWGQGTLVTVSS VL: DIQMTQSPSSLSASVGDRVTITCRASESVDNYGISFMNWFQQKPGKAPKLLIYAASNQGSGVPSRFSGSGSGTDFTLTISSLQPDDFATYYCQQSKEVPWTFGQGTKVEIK
102
